- target-desc: Angiotensin-converting enzyme (Oryctolagus cuniculus, UniProt P12822)
- Sequence (P12822 whole entry): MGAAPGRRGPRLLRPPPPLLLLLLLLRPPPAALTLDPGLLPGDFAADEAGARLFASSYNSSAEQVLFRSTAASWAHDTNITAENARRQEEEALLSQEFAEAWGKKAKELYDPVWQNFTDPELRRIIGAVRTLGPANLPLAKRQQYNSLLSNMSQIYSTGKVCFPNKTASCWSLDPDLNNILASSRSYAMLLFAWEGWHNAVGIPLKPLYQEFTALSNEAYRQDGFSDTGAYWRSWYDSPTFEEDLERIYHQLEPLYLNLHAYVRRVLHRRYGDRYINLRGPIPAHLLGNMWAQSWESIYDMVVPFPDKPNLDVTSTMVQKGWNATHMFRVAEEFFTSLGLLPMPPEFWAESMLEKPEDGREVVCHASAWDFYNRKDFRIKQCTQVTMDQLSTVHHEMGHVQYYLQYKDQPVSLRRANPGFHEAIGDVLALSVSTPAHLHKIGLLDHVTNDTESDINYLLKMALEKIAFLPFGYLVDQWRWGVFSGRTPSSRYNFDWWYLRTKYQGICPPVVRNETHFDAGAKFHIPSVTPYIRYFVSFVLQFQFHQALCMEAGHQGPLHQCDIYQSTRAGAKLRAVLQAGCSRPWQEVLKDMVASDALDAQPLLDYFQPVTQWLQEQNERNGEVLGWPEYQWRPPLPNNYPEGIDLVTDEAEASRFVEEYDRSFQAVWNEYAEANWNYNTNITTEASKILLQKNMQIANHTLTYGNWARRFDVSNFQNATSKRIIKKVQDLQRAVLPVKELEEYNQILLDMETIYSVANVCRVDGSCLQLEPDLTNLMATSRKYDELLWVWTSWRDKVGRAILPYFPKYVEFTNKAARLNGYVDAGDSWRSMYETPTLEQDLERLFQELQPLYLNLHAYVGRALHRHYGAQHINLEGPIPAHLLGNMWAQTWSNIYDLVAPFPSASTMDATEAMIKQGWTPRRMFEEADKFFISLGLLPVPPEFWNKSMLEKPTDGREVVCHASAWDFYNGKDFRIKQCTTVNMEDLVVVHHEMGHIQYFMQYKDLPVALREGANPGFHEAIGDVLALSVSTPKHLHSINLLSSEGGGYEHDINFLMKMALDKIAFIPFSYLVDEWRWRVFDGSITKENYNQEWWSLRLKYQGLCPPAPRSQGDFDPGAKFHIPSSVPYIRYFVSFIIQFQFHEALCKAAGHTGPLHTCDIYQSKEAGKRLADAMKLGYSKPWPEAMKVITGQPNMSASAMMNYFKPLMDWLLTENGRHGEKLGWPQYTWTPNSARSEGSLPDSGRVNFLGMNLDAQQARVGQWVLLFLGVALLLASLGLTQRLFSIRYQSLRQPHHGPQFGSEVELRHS
assay-metric: IC50

Kindly note the recorded IC50 for `CC(C)(C)C(=O)Sc1ccccc1C(=O)N(CC(=O)O)C1CCCC1` , which is > 100 µM
